# Measured on: p75^NTR receptors (PC12 cells) (Rattus norvegicus)
# Construct: endogenous in cells; host or cells: PC12 cells
# Sequence (P07174 30-425): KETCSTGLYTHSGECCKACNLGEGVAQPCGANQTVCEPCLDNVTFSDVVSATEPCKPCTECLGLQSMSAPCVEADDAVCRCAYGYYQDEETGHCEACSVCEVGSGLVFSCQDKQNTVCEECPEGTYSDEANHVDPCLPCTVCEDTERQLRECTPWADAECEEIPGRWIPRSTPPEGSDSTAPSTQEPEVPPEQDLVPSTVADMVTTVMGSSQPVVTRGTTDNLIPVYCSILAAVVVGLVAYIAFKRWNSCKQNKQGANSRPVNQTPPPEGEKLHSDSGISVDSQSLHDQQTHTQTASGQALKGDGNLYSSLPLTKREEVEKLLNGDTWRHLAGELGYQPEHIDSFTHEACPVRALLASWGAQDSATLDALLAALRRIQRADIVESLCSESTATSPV
# Sequence (P23560 129-247 partner): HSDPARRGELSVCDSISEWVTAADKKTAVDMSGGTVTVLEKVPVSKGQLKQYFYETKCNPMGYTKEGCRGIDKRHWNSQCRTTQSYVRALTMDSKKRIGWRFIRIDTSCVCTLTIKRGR
# Procedure text: Basic screening assay: binding of 125I-BDNF to PC12 cells
# Study conditions: Example 3 table
Measure: 125I-BDNF Binding (% binding)

                                smiles_code                        measure                  result
0  O=C1NC(=S)NC(=O)C1=Cc1ccc(-c2ccc(C(=O)O)c(Cl)c2)o1  125I-BDNF Binding (% binding)  XXXXX (0 < XXXXX < 10)
1  Cc1cc(-c2ccc(C=C3C(=O)NC(=S)NC3=O)o2)c(C)c([N+](=O)[O-])c1  125I-BDNF Binding (% binding)  XXXXX (0 < XXXXX < 10)
